Tested on: SARS-CoV-2 strain G614
Experiment: microbe, parasite or virus in culture
Assay type: cell-based
Conditions: Severe acute respiratory syndrome coronavirus 2, 24 h, read-out: Anti-SARS-CoV-2 activity, spike immunostaining assay (IC50 ± SD)
Quantity Kind: pIC50
Reminder that pIC50 means the negative base-10 logarithm of the concentration expressed in mol/L.

pIC50 for SARS-CoV-2 strain G614 with input COc1cc(/C=C/c2ccc(O)cc2)cc(OC)c1 [Compound 1, (E)-pterostilbene] equals 4.46

pIC50 for SARS-CoV-2 strain G614 with input COc1ccc([C@@H]2COc3cc(OC)ccc3C2)c(O)c1 [Compound 22, (−)-isosativan] equals 4.39

pIC50 for SARS-CoV-2 strain G614 with input COc1ccc2c(c1)OC1c3ccc(O)cc3OCC21 (single isomer, unassigned; (-)) [Compound 2, (−)-medicarpin] equals 4.48

pIC50 for SARS-CoV-2 strain G614 with input COc1ccc2c(c1)O[C@H]1c3ccc(OC)cc3OC[C@@H]21 [Compound 5, (−)-homopterocarpin] equals 4.76
